Target: T1, Human Nectin-4 (human, UniProt Q96NY8 32-349, limits assumed)
T1 construct: Protein immobilised on the SPR chip; also called target protein
T1 sequence: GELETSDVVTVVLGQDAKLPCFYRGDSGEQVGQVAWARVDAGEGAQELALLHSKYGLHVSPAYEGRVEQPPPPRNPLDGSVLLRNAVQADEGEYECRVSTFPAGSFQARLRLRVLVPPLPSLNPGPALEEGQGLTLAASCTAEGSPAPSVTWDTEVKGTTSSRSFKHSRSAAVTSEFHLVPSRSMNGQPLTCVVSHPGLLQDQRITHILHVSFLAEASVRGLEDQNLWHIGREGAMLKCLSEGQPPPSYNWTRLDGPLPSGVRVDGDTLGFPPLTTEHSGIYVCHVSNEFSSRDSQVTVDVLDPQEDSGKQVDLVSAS
Experiment: Table 2B (DELFIA or SPR)
Bridges are numbered along the chain shown (N, C = ends). Primed or numbered codes have the meaning given here. Where no end group is shown, it is not given here. The star is where a group is joined. Biotin = O=C1N[C@H]2[C@H](CS[C@H]2CCCCC(=O)*)N1; PEG4″ = 4(ethylene glycol)
endpointLabel: Kd (nM)

INSERT INTO assay_data (binder, endpointlabel, recordednumber) VALUES
  ('{Biotin-PEG4″}-CEYDEEFFTALKRLRGGDICYYIQAKFQYLPKLCIEEILDNLGCS (designed binder, disulfide 1-34, 20-44) [C119]', 'Kd', 0.95),
  ('Ac-CEYDEEFFSGLKRLRGGDICYYIKKKFKKVPDLCIEEILDKLGC-OH (designed binder, disulfide 1-34, 20-44) [C28]', 'Kd', 5.29),
  ('{Biotin-PEG4″}-CEYDEEFFTALARLRGGDICYYIQAKFQYLPGLCIEEILDNLGCS (designed binder, disulfide 1-34, 20-44) [C127]', 'Kd', 1.27);
